Source: the supplement of paper PMC11061612

Test system: MDA-MB-231 (Breast Carcinoma)
METHOD: combination Emax (second highest fraction inhibited in the dose matrix, 72 h); higher = more inhibition; extreme values may be limits of the assay
Reported combination Emax by item:
Answer using only a numeral; do not append any unit.

COc1cc2ncnc(Nc3ccc(F)c(Cl)c3)c2cc1OCCCN1CCOCC1 [Gefitinib] + CC(C)n1c(=O)n(C)c2cnc3cc(F)c(-c4ccc(OCCCN5CCCCC5)nc4)cc3c21 [AZD1390] (first compound max 10 µM, 7x7, partner max 0.3 µM) :: 0.193
Cc1cc2ncnn2cc1Nc1ncc2c(n1)n(C1CCOCC1)c(=O)n2C [AZD7648] + O=C(c1cc(Cc2n[nH]c(=O)c3ccccc23)ccc1F)N1CCN(C(=O)C2CC2)CC1 [Olaparib] (first compound max 10 µM, 7x7, partner max 10 µM) :: 0.266
CN(C)CCCOc1ccc(-c2ccc3ncc4c(c3c2)n(C2CCOCC2)c(=O)n4C)cn1 [AZD0156] + O=C(c1cc(Cc2n[nH]c(=O)c3ccccc23)ccc1F)N1CCN(C(=O)C2CC2)CC1 [Olaparib] (first compound max 3 µM, partner max 3 µM) :: 0.405

Field: next compound
Lab note: need combination Emax with MDA-MB-231 (Breast Carcinoma) for entry O=C(c1cc(Cc2n[nH]c(=O)c3ccccc23)ccc1F)N1CCN(C(=O)C2CC2)CC1 [Olaparib] + CC1(C)CCC(CN2CCN(c3ccc(C(=O)NS(=O)(=O)c4ccc(NCC5CCOCC5)c([N+](=O)[O-])c4)c(Oc4cnc5[nH]ccc5c4)c3)CC2)=C(c2ccc(Cl)cc2)C1 [Venetoclax] (first compound max 10 µM, 7x7, partner max 1 µM) , please look it up.
0.239

###

Reported Bliss excess by item:
Tested on: RH-1 (Ewing's Sarcoma)
METHOD: Bliss excess, mean over the matrix (fraction); higher = more synergy
Answer using only a numeral; do not append any unit.

Would you please look over these solved cases?
CN(CCO)CC[C@H](CSc1ccccc1)Nc1ccc(S(=O)(=O)NC(=O)c2ccc(N3CCC([C@@H](O)c4ccccc4-c4ccc(Cl)cc4)CC3)cc2)cc1S(=O)(=O)C(F)(F)F [AZD4320] + CN(C)CCCOc1ccc(-c2ccc3ncc4c(c3c2)n(C2CCOCC2)c(=O)n4C)cn1 [AZD0156] (first compound max 1 µM, 7x7, partner max 1 µM) :: -0.024
COc1cccc(OCCCN)c1-c1cc(Nc2cnc(C#N)cn2)n[nH]1 [Prexasertib] + Cc1cc2ncnn2cc1Nc1ncc2c(n1)n(C1CCOCC1)c(=O)n2C [AZD7648] (first compound max 1 µM, 7x7, partner max 10 µM) :: -0.0085

Field: next compound
Bliss excess lookup needed for CN(CCO)CC[C@H](CSc1ccccc1)Nc1ccc(S(=O)(=O)NC(=O)c2ccc(N3CCC([C@@H](O)c4ccccc4-c4ccc(Cl)cc4)CC3)cc2)cc1S(=O)(=O)C(F)(F)F [AZD4320] + Cc1cc2ncnn2cc1Nc1ncc2c(n1)n(C1CCOCC1)c(=O)n2C [AZD7648] (first compound max 1 µM, 7x7, partner max 10 µM) , thanks.
-0.0018

###

Tested on: CAL-78 (Chondrosarcoma)
METHOD: Bliss excess, mean over the matrix (fraction); higher = more synergy
Reported Bliss excess by item:

Would you please look over these solved cases?
CC1(C)CCC(CN2CCN(c3ccc(C(=O)NS(=O)(=O)c4ccc(NCC5CCOCC5)c([N+](=O)[O-])c4)c(Oc4cnc5[nH]ccc5c4)c3)CC2)=C(c2ccc(Cl)cc2)C1 [Venetoclax] + Cn1cnc2c(F)c(Nc3ccc(Br)cc3Cl)c(C(=O)NOCCO)cc21 [Selumetinib] (first compound max 1 µM, 7x7, partner max 3 µM) :: -0.0619
CCN(CCO)CCCOc1ccc2c(Nc3cc(CC(=O)Nc4cccc(F)c4)[nH]n3)ncnc2c1 [AZD2811] + O=C(c1cc(Cc2n[nH]c(=O)c3ccccc23)ccc1F)N1CCN(C(=O)C2CC2)CC1 [Olaparib] (first compound max 1 µM, 7x7, partner max 10 µM) :: 0.0006

Field: next compound
Bliss excess lookup needed for COc1nnc2ccc(N3CCC(c4ccc(OCCN5CCN(C)C(=O)[C@H]5C)cc4)CC3)nn12 [AZD5153] + CC1(C)CCC(CN2CCN(c3ccc(C(=O)NS(=O)(=O)c4ccc(NCC5CCOCC5)c([N+](=O)[O-])c4)c(Oc4cnc5[nH]ccc5c4)c3)CC2)=C(c2ccc(Cl)cc2)C1 [Venetoclax] (first compound max 1 µM, 7x7, partner max 1 µM) , thanks.
-0.0999
